Give measured IC50 for each item. Keep answers brief.
TARGET DESC: dopamine D2S receptor (human recombinant expressed in CHO cells) (Homo sapiens)
Sequence (P14416 1-414 isoform P14416-2): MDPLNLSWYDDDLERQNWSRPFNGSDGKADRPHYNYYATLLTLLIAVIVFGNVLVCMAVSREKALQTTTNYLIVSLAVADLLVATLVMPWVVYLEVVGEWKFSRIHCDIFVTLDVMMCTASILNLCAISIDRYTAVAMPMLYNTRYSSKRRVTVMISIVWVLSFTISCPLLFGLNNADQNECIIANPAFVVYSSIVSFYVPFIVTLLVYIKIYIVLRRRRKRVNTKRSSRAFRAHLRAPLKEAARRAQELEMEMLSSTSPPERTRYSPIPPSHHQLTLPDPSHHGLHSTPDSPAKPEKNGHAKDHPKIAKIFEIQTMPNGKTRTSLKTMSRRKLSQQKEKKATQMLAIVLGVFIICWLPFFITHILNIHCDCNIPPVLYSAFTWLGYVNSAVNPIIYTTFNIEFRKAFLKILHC
PROCEDURE TEXT: Dopamine, D2S (human recombinant) radioligand binding assay, [3H]Spiperone
CONDITION LABEL: six concentrations 0.5-1000 nM
Counter-ions that a name gives are not always drawn.
Respond numerically; units are nM and should not be typed.

For the molecule CCOC(=O)C(C)(C)CCOc1ccccc1N1CCN(CCCCOc2ccc3c(c2)NC(=O)CO3)CC1 [Compound 18b, hydrochloride] , what IC50 is on record? 147

For the molecule CCOC(=O)CN1C(=O)COc2ccc(OCCCCN3CCN(c4cccc(Cl)c4Cl)CC3)cc21 [Compound 28c, hydrochloride] , what IC50 is on record? 49.4

For the molecule CCOC(=O)CCCOc1ccccc1N1CCN(CCCCOc2ccc3c(c2)NC(=O)CO3)CC1 [Compound 18a, hydrochloride] , what IC50 is on record? 19.2

For the molecule O=C(CCCN1CCN(c2cccc(Cl)c2Cl)CC1)Nc1ccc2c(c1)NC(=O)CO2 [Compound 5b, hydrochloride] , what IC50 is on record? 7.89

For the molecule CCOC(=O)C(C)(C)Oc1ccccc1N1CCN(CCCCOc2ccc3c(c2)NC(=O)CO3)CC1 [Compound 18c, hydrochloride] , what IC50 is on record? 5.93
